targetDesc: human CB1 receptor (Homo sapiens)
Construct: expressed in transfected cells; host or cells: HEK293
Sequence (P21554 whole entry): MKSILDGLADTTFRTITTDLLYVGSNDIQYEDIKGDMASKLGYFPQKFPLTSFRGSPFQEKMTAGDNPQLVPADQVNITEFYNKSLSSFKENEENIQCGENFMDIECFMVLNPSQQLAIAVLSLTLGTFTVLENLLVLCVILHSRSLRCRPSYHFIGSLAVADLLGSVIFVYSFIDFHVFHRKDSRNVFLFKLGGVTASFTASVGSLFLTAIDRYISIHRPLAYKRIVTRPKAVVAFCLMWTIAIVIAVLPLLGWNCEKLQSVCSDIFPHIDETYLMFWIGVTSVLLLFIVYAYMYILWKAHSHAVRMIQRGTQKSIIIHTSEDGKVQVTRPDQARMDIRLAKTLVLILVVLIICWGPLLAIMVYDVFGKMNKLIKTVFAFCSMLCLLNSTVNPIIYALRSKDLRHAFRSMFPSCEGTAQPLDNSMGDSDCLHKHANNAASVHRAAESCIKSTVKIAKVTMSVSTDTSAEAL
testName: bioSensAll GAPL-Gi2 BRET biosensor assay in HEK293 cells transfected with hCB1; test compound added before EC75-80 of agonist CP55,940 (0.1 nM)
Format: cell-based
studyConditions: vs CP55,940 0.1 nM (EC75-80), read-out: CB1 wt Gi2 IC50
readoutName: pIC50
Answers are plain numbers, as −log10 of the molar value.

Past entries and their recorded results:
INPUT: Lab request: please report pIC50 under test system human CB1 receptor (Homo sapiens) for `CC1(C(N)=O)CCN(c2nc(N3CCS(=O)(=O)CC3)nc3c2nc(-c2ccccc2Cl)n3-c2ccc(Cl)cc2)CC1`
OUTPUT: 9.50

INPUT: Lookup `CC(C)(O)COc1nc(N2CCC(C)(C(N)=O)CC2)c2nc(-c3ccccc3Cl)n(-c3ccc(Cl)cc3)c2n1`
OUTPUT: 9.40

INPUT: Next entry: `CC(C)(O)COc1nc(N2CC(C(N)=O)C2)c2nc(-c3ccccc3Cl)n(-c3ccc(Cl)cc3)c2n1`
OUTPUT: 7.86

INPUT: Consider next the compound `CN(CCO)C(=O)C1CN(c2nc(N(C)CCO)nc3c2nc(-c2ccccc2Cl)n3-c2ccc(Cl)cc2)C1` in the same way.
OUTPUT: 8.40

INPUT: Try this compound too: `CCOC1(C(N)=O)CCN(c2nc(NCC(C)(C)O)nc3c2nc(-c2ccc(C#N)nc2)n3-c2ccc(Cl)cc2)CC1`
OUTPUT: 7.75

Could you tell me pIC50 for each of these compounds? They are listed below.
1. CC(C)Oc1nc(OCC(C)(C)O)nc2c1nc(-c1ccccc1Cl)n2-c1ccc(Cl)cc1
2. CC(C)(C)OC(=O)NCCOc1nc(N2CCC(C)(C(N)=O)CC2)c2nc(-c3ccccc3Cl)n(-c3ccc(Cl)cc3)c2n1

OUTPUT:
1. 8.86
2. 8.16

I would be grateful if you could provide pIC50 for each of the following entries.
1. CN(CCO)c1nc(OCC(C)(C)O)nc2c1nc(-c1ccccc1Cl)n2-c1ccc(Cl)cc1
2. CC(=O)NC1(C)CN(c2nc(OCC(C)(C)OP(=O)(O)O)nc3c2nc(-c2ccccc2Cl)n3-c2ccc(Cl)cc2)C1
3. CCNC1(C(N)=O)CCN(c2nc(-n3ccnc3)nc3c2nc(-c2ccccc2Cl)n3-c2ccc(Cl)cc2)CC1
4. CC1(C(N)=O)CCN(c2nc(OCCNS(C)(=O)=O)nc3c2nc(-c2ccccc2Cl)n3-c2ccc(Cl)cc2)CC1
5. OC[C@@H]1CCCN1c1nc(N2CCC(C(F)(F)F)CC2)c2nc(-c3ccccc3Cl)n(-c3ccc(Cl)cc3)c2n1 [Compound 35]

OUTPUT:
1. 7.59
2. 7.56
3. 9.15
4. 9.19
5. 9.16

INPUT: For the record CCNC1(C(N)=O)CCN(c2nc(N3CCC(CO)C3)nc3c2nc(-c2ccccc2Cl)n3-c2ccc(Cl)cc2)CC1 (centres unmarked) , what value of pIC50 is listed for human CB1 receptor (Homo sapiens)?
OUTPUT: 9.30
